The origin of these recorded values is PubChem BioAssay (NCATS).

# Experimental details: Viability qHTS for spleen associated tyrosine kinase inhibitor (SYKi) drug resistant MV4-11 cells (AID 1963824); also: nearly all actives have a fitted effect of over 35% in size
# Condition description: SYKi-resistant MV4-11 viability, CellTiter-Glo, 72 h; series mostly up to 45 µM
Results filed as inconclusive are left out. The source made the active and inactive calls. Calls follow the shape of the dose curve; as a rule, active = well fitted cell-killing curve with a large enough effect; inconclusive = small, poorly fitted or top-dose-only effect, or effect the other way; inactive = no such curve, though single readings can be large or run the other way.
I would appreciate it if you answered using one of these outcomes: active, inactive

Look over these answered cases.
Molecule | Assigned class
Cc1ccc2c(c1)C1CN(C)CCC1N2 (stereo unspecified) | inactive
Nc1ccncc1 | inactive
CC(N)Cc1c[nH]c2ccccc12 (stereo unspecified) | inactive
O=[N+]([O-])c1cc([As](=O)(O)O)ccc1O | inactive

Just curious, what result did CN1[C@H]2C[C@H](OC(=O)[C@H](CO)c3ccccc3)C[C@@H]1[C@@H](O)C2 get here?
inactive

Test call, this molecule: C[C@]12CC[C@H]3[C@@H](CCC4=C/C(=N/OCC(=O)O)CC[C@@]43C)[C@@H]1CC[C@@H]2O
inactive

----------
# Experimental details: Viability qHTS for spleen associated tyrosine kinase inhibitor (SYKi) naive MV4-11 cells (AID 1963823); also: nearly all actives have a fitted effect of over 40% in size
# Condition description: MV4-11 AML viability, CellTiter-Glo luminescence, 72 h; series mostly up to 45 µM
Inconclusive results are not listed. The source made the active and inactive calls. Calls follow the shape of the dose curve; as a rule, active = well fitted cell-killing curve with a large enough effect; inconclusive = small, poorly fitted or top-dose-only effect, or effect the other way; inactive = no such curve, though single readings can be large or run the other way.
Permitted responses: active, inactive

Past entries and their recorded results:
Compound | Assigned class
COc1cc(C[C@@H](C)N)c(OC)cc1C | inactive
CC(C)(O)/C=C/C(=O)[C@](C)(O)[C@H]1[C@H](O)C[C@@]2(C)[C@@H]3CC=C4[C@@H](C[C@H](O)C(=O)C4(C)C)[C@]3(C)C(=O)C[C@]12C | active
CN1C(=O)C(Cc2ccc3ccccc3c2)N=C(c2ccc(O)cc2)c2cc(Cl)ccc21 (stereo not drawn) | active
CC[N+](CC)(CC)CC | inactive
C[C@]12CC[C@H]3[C@@H](CCC4=CC(=O)CC[C@@H]43)[C@@H]1CC[C@@H]2O | inactive

Could you please tell me the result logged for C[C@H]1O[C@@H](O[C@H]2CC[C@]3(C=O)C4CC[C@]5(C)[C@@H](C6=CC(=O)OC6)CC[C@]5(O)[C@@H]4CC[C@]3(O)C2)C[C@@H](O)[C@@H]1O (stereo partly drawn) in this assay?
active

// outcome(item) with item = CC(C)c1cccc(C(C)C)c1O
inactive

Returns: the outcome recorded for COc1ccc2c3c1O[C@H]1[C@@H](O)C=C[C@H]4[C@@H](C2)N(C)CC[C@@]341 in this assay.
active

----------
# Experimental details: Quantitative highthroughput screen to assess conditional lethalithy of NOMO1 cells grown in Human Plasma-Like Medium with dialyzed fetal bovine serum (HPLM+ds) (AID 1963878); also: nearly all actives have a fitted effect of over 35% in size;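 as to viability: 100% = DMSO wells and 0% = empty wells on each plate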
# Condition description: NOMO1 AML cells in HPLM+ds, CellTiter-Glo viability, 48 h; series mostly up to 45.8 µM
Results filed as inconclusive are left out. Calls of active or inactive are those of the source. The call rests on the fitted dose curve; in most records, active means well fitted cell-killing curve with a large enough effect; inconclusive means small, poorly fitted or top-dose-only effect, or effect the other way; inactive means no such curve, though single readings can be large or run the other way.
Classes to choose from: active, inactive

Compound | Assigned class
CC(=O)N(C)c1cccc(-c2ccnc3c(C(=O)c4cccs4)cnn23)c1 | inactive

Assay result, entry C[C@](O)(COc1ccc(C#N)cc1)C(=O)Nc1ccc(C#N)c(C(F)(F)F)c1 — outcome?
inactive

// param item: CC(C)(C)c1cc(C=C(C#N)C#N)cc(Br)c1O ; yields the recorded call
inactive

Just curious, what result did CC=C(C)C(=O)N[C@@H](c1ccccc1)[C@@H](O)C(=O)O[C@H]1C[C@@]2(O)[C@@H](OC(=O)c3ccccc3)[C@@H]3[C@]4(OC(C)=O)CO[C@@H]4C[C@H](O)[C@@]3(C)C(=O)[C@H](OC(C)=O)C(=C1C)C2(C)C get here?
inactive

What did this assay record as the result for CCN1C[C@]2(OC(=O)c3ccccc3NC(C)=O)CC[C@H](OC)[C@@]34[C@H]5CC6[C@@H](OC)C[C@](O)(C(C[C@@H]23)[C@@H]14)[C@@]5(O)[C@@H]6OC ?
inactive

# fetch the recorded call for Fc1ccc(C(OCCN2CCN(CCCc3ccccc3)CC2)c2ccc(F)cc2)cc1 here
active

Hi team, can someone confirm the assay call for CC(O)=C(C#N)C(=O)Nc1cc(Br)ccc1Br ?
inactive

// param item: Cc1c(C(=O)Nc2cccc(C(F)(F)F)c2)cc(-c2ccccc2)n1CCCN1CCOCC1 ; yields the recorded call
inactive

Recorded test outcome, item COc1ccc2c(c1OC)CN1CCc3cc4c(cc3C1C2)OCO4 (centres undefined)
active

I'd appreciate the recorded outcome for C[C@]12CCC(=O)C=C1CC[C@@H]1[C@H]3CC[C@](C)(O)[C@@]3(C)CC[C@@H]12 from this test.
inactive

Query: recorded result category for Cc1ncc(OC[C@@]2(c3cccc(F)c3)C[C@H]2C(=O)Nc2ccc(F)cn2)c(C)n1 in this test
inactive

Given CN(C)CCc1ccc(O)cc1 , state the outcome it received in this test.
inactive

Given C[C@@H]1O[C@@H](O[C@@H]2C=C3CC[C@@H]4[C@@H](CC[C@]5(C)[C@H](c6ccc(=O)oc6)CC[C@@]45O)[C@@]3(C)CC2)[C@H](O)[C@H](O)[C@H]1O , state the outcome it received in this test.
active

What did this assay record as the result for O=[N+]([O-])c1ncc[nH]1 ?
inactive

Assay result, entry CC[C@H]1C=CC=CC[C@@H](C)[C@H](O)[C@@](C)(O)C(=O)[C@@H](C)[C@H](O)[C@@H](C)C(=O)[C@@H](C)[C@H](O)[C@@H](C)C=CC(=O)O[C@@H]2[C@@H](C)[C@H](CC1)O[C@]1(CC[C@H](C)[C@H](C[C@@H](C)O)O1)[C@H]2C — outcome?
active

Any idea what this test logged for COC[C@H]1OC(=O)c2coc3c2[C@@]1(C)C1=C(C3=O)C2CCC(=O)[C@@]2(C)C[C@H]1OC(C)=O (some centres undefined) ?
inactive

Per the assay record, what outcome was assigned to c1cc2c(cc1[C@H]1OC[C@H]3[C@H]1CO[C@H]3c1ccc3c(c1)OCO3)OCO2 ?
inactive

Test call, this compound: CC[C@@H](C(N)=O)N1CCCC1=O
inactive

// return assay outcome for C=C[C@@H]1CN2CCC1C[C@@H]2[C@@H](O)c1ccnc2ccccc12 (some centres undefined)
inactive

What did this assay record as the result for COc1cc(OC)c(OC)cc1C=O ?
inactive

For CCNC(=O)C[C@@H]1N=C(c2ccc(Cl)cc2)c2cc(OC)ccc2-n2c(C)nnc21 , what call appears in the results of this test?
active

Hey, what did the test say about CCc1c(C(=O)C(N)=O)c2c(OCC(=O)O)cccc2n1Cc1ccccc1 ?
inactive

Outcome? CN(C)CCN(C)CCc1ccc(Cl)c(Cl)c1
inactive

----------
# Experimental details: Quantitative highthroughput screen to assess conditional lethalithy of NOMO1 cells grown in RPMI1640 with untreated serum (RPMI+s) (AID 1963876); also: nearly all actives have a fitted effect of over 35% in size;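 as to viability: 100% = DMSO wells and 0% = empty wells without cells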
# Condition description: NOMO1 AML cells in RPMI+serum, CellTiter-Glo viability, 48 h; series mostly up to 45.8 µM
Records with an inconclusive call do not appear. Calls of active or inactive are those of the source. Calls come from the whole dose curve; as a rule, active = well fitted cell-killing curve with a large enough effect; inconclusive = small, poorly fitted or top-dose-only effect; inactive = flat fitted curve, though single readings scatter.
Output constraint: value belongs to 1 (active), 0 (inactive)

Compound | Assigned class
CC(C)CC(N(C)C)C1(c2ccc(Cl)cc2)CCC1 (centres undefined) | 0
COc1cc(OC)c(OC)cc1C=O | 0
CC(NC(C)(C)C)C(=O)c1cccc(Cl)c1 (centres undefined) | 0
CCOC(=O)c1c(C(C#N)=CN)c2ccc(Cl)c(Cl)c2n1C | 0
COc1ccc2c(c1)[C@]13CCCCC1C(C2)N(C)CC3 (some centres undefined) | 0
C=C[C@@H]1CN2CCC1C[C@@H]2[C@@H](O)c1ccnc2ccccc12 (some centres undefined) | 0
CN1CCN(c2ccc([N+](=O)[O-])c3no[n+]([O-])c23)CC1 | 0
Cc1sc2c(c1C)C(c1ccc(Cl)cc1)=N[C@@H](CC(=O)OC(C)(C)C)c1nnc(C)n1-2 | 1

State the result this test recorded for C[C@]12CCC(=O)C(O)=C1CC[C@@H]1[C@H]3CCC(=O)[C@@]3(C)CC[C@@H]12 .
0

Answer briefly: the call reported for COC[C@H]1OC(=O)c2coc3c2[C@@]1(C)C1=C(C3=O)C2CCC(=O)[C@@]2(C)C[C@H]1OC(C)=O (some centres undefined) in this assay.
0

Record request — test call for CC1=C(O)C(=O)C=C2C1=CC=C1[C@@]2(C)CC[C@@]2(C)[C@@H]3C[C@](C)(C(=O)O)CC[C@]3(C)CC[C@]12C
1

Assay result, entry C#CCN(C)[C@H](C)Cc1ccccc1 — outcome?
0

For this compound, state the assay outcome: COc1cccc2c1[C@]13CCN(CC4CC4)[C@H](C2)[C@]1(OC)CCC(=O)C3
0

Assay outcome for CC[C@@H](C(N)=O)N1CCCC1=O : what was it?
0

----------
# Experimental details: Quantitative highthroughput screen to assess conditional lethalithy of NOMO1 cells grown in RPMI1640 with dialyzed fetal bovine serum (RPMI+ds) (AID 1963877); also: nearly all actives have a fitted effect of over 30% in size;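 as to viability: 100% = DMSO control wells and 0% = empty wells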
# Condition description: NOMO1 in RPMI+dialyzed FBS viability, ATP luminescence, 48 h; series mostly up to 45.8 µM
Inconclusive results are not listed. Active and inactive are the calls of the source. Calls follow the shape of the dose curve; as a rule, active = well fitted cell-killing curve with a large enough effect; inconclusive = small, poorly fitted or top-dose-only effect; inactive = flat fitted curve, though single readings scatter.
Outcomes you can answer with include only these: 1.0 = active, 0.0 = inactive

Illustrative cases are given below, each with its answer.
Compound | Assigned class
Cc1ncc(OC[C@@]2(c3cccc(F)c3)C[C@H]2C(=O)Nc2ccc(F)cn2)c(C)n1 | 0.0
O=C(N[C@H]1CN2CCC1CC2)c1ccc(Cl)cc1 | 0.0
CC1(N2CCC(n3c([C@@H]4CCCNC4)nc4ccccc43)CC2)CCCCCCC1 | 1.0
C[C@@H]1CC[C@@]2(OC1)O[C@H]1C[C@H]3[C@@H]4CC=C5C[C@@H](O[C@@H]6O[C@H](CO)[C@@H](O[C@@H]7O[C@@H](C)[C@H](O)[C@@H](O)[C@@H]7O)[C@H](O)[C@@H]6O[C@@H]6O[C@@H](C)[C@H](O)[C@@H](O)[C@@H]6O)CC[C@]5(C)[C@@H]4CC[C@]3(C)[C@@H]1[C@H]2C | 1.0
CCOC(=O)c1cncn1[C@H](C)c1ccccc1 | 0.0

Dear colleague, could you share the recorded outcome for CC(C)(C)c1cc(C=C(C#N)C#N)cc(Br)c1O when you have a moment?
0.0

What call does the record list for C[C@]12CC[C@H]3[C@@H](CCC4=CC(=O)CC[C@@]43C)[C@H]1CC[C@H]2O ?
0.0

Could you check what this test reported for O=C(Oc1ccc([N+](=O)[O-])cc1)N1CCN(Cc2cccc(Oc3ccccc3)c2)CC1 ?
0.0

What is the recorded call for this compound in the test? CC(=O)O[C@@]12CO[C@H]1C[C@H](O)[C@@]1(C)C(=O)[C@H](O)C3=C(C)[C@@H](O)C[C@@](O)([C@@H](OC(=O)c4ccccc4)[C@@H]21)C3(C)C
1.0

Query: recorded result category for O=C(O)CNC(=O)c1c(O)c2ccccc2n(Cc2ccccc2)c1=O in this test
0.0

Entry COc1ccc2c(c1OC)CN1CCc3cc4c(cc3C1C2)OCO4 (stereo not drawn) : call = ?
1.0

So what was the verdict on CC(C)N(CCNC(=O)CN1CCCC1=O)C(C)C in this test?
0.0

Hi team, can someone confirm the assay call for COC1=CC(C)=C[C@@H](C)[C@@H](O)[C@@H](C)CC(C)=CC=C[C@H](OC)[C@H]([C@@H](C)[C@@H](O)[C@H](C)[C@@]2(O)C[C@@H](O)[C@H](C)[C@@H](C(C)C)O2)OC1=O ?
1.0
